Cited source: paper PMC7943553

Tested system: T1, P. vivax Reticulocyte Binding Protein 2b, residues 161–1454 (P. vivax strain Salvador I, UniProt A5K736, DyLight 488 (NHS ester) in the FRET assay; biotin (BirA site) in the competition ELISA between human mAbs)
T1 construct: PvRBP2b, P. vivax strain Salvador I, PlasmoDB PVX_094255 (total length 2806 amino acids), residues 161-1454; also called PvRBP2b_(161–1454); PvRBP2b; source: recombinant; expressed and purified in a similar manner as PvRBP2b161–470 (E. coli SHuffle T7; HisTrap, Q-Sepharose, size exclusion) or as previously described
Experimental details: ELISA; avidity ELISA: plates coated with 50 ng PvRBP2b161–1454; human mAbs at 0.2 µg/mL; then PBS, 0.5, 1 or 2 M NH4SCN for 20 min; binding relative to no NH4SCN
Condition label: both partners purified
Please go through the items and note down their percent binding left at 2 M NH4SCN.

INPUT: // query percent binding left at 2 M NH4SCN value for entry PvRBP2b human mAb 243244 (antibody, V domains shown, variable region as the Fab heavy chain in PDB 6WNO; cloned into a human IgG1 backbone, full-length antibody; lambda light chain; as the Fab light chain in PDB 6WNO; IgG1; same clonal group as 237235; source: Expi293 HEK cells, transfected, purified (Protein A, gel filtration)) VH: QVQLVESGGGVVQSGKSLRVSCAASGFTFSSYGMHWVRQAPGKGLEWVAFISYDGDNKYSADSVKGRLTISRDNSKNTLYLQMNSLRPEDTAVYYCAKESNYGENAFDIWGQGTMVTVSS VL: QSALTQPRSVSGSPGQSVTISCTGTSSDVGFYNFVSWYQHHPGKAPKLIIYDVSERPSGVPDRFSGSKSGNTASLSISGLQPEDEADYYCCSYAGTYTFVFGSGTKVTVL
OUTPUT: > 75%

INPUT: Can you handle PvRBP2b human mAb 253245 (antibody, V domains shown, variable region as the Fab heavy chain in PDB 6WTY; cloned into a human IgG1 backbone, full-length antibody; lambda light chain; as the Fab light chain in PDB 6WTY; IgG1; source: Expi293 HEK cells, transfected, purified (Protein A, gel filtration)) VH: EVQLVQSGAEVKKPGSSMKVSCKASGGTFNRYVFSWVRQAPGQGLEWMGGILPILETTYYAKNFKGRVTITADESTSTVYMELSSLTSEDTAVYFCARDEHDYVWGSYRPSLTGPWGQGTLVTVSS VL: QSALTQPPSTSGSPGQSVTISCTGTGIDVGGFSYVSWFQYHPGKAPKLIIFEVTKRPSGVPDRFSGSKSGNTASLTISGLQADDEAEYYCSSYAVNNNFVFGTGTKVTVL next?
OUTPUT: < 75%

INPUT: Can you handle PvRBP2b human mAb 237235 (antibody, V domains shown, variable region as the Fab heavy chain in PDB 6WM9; cloned into a human IgG1 backbone, full-length antibody; lambda light chain; as the Fab light chain in PDB 6WM9; IgG1; same clonal group as 243244; source: Expi293 HEK cells, transfected, purified (Protein A, gel filtration)) VH: QVQLVESGGGVVQPGRSLRLSCAASGFMFNSYGMHWVRQAPGKGLEWMAFISYDGSDDYYGDSVKGRITISRDNSKNTLFLHINSLRTEDTAVYYCAKESNYGENAFDVWGHGTMVTVSS VL: QSALTQPRSVSGSPGQSVTISCTGTSNDVGFYNFVSWYQHHPGKAPKLMIYDVTERPSGVPDRFSGSKSGNTASLTISGLQAEDEAEYYCCSYAGTYTFVFGHGTKVTVL next?
OUTPUT: > 75%
